# MEASUREMENT TARGET: rat Y5 receptor (Rattus norvegicus, UniProt Q63634)
# Construct: expressed in transfected cells; host or cells: C6 cells (membrane preparation)
# Sequence (Q63634 1-445): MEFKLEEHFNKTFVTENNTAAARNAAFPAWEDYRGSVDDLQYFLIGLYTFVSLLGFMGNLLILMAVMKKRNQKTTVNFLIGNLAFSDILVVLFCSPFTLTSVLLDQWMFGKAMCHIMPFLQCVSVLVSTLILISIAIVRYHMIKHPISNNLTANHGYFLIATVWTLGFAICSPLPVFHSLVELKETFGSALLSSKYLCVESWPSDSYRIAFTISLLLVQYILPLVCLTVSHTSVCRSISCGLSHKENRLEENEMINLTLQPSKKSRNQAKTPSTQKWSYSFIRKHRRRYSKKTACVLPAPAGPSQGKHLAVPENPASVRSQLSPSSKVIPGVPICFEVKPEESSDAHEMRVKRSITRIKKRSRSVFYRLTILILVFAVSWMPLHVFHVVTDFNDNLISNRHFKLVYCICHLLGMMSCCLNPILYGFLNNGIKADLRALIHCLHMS
# PROTOCOL TEXT: Neuropeptide Y5 receptor binding ([125I]-PYY displacement, membranes of transfected C6 cells)
# EXPERIMENTAL PARAMETERS: 10^−6 M; membranes of C6 cells transfected with the rat Y5 receptor; radioligand [125I]-PYY 100 pM
MEASUREMENT KIND: inhibition at 1 µM (%)

{"COMPOUND": "Cc1ccc(NC2CCN(CC(=O)Nc3cnc4ccccc4c3)CC2)c(CO)c1 [Example 5]", "inhibition at 1 µM [%]": 86.2}
{"COMPOUND": "Cc1cccc(CO)c1NC1CCN(CC(=O)Nc2ccc3ncccc3c2)CC1 [Example 11]", "inhibition at 1 µM [%]": 73.9}
{"COMPOUND": "Cc1ccc(NC2CCN(CC(=O)Nc3ccc(C(=O)c4ccccc4)cc3)CC2)c(CO)c1 [Example 14]", "inhibition at 1 µM [%]": 88.9}
{"COMPOUND": "Cc1cccc(CO)c1NC1CCN(CC(=O)Nc2ccc(C(=O)c3ccccc3)cc2)CC1 [Example 15]", "inhibition at 1 µM [%]": 93.2}
{"COMPOUND": "Cc1cccc(CO)c1NC1CCN(CC(=O)Nc2cnc3ccccc3c2)CC1 [Example 9]", "inhibition at 1 µM [%]": 80.4}
{"COMPOUND": "Cc1ccc(NC2CCN(CC(=O)Nc3ccc4ncccc4c3)CC2)c(CO)c1 [Example 7]", "inhibition at 1 µM [%]": 82.3}
{"COMPOUND": "O=C(CN1CCC(Nc2ccccc2CO)CC1)Nc1ccc(C(=O)c2ccccc2)cc1 [Example 13]", "inhibition at 1 µM [%]": 81.5}

Reference source: patent US7888510B2
